- assay.system: human p45MEK1 (GST-MEK) (Homo sapiens, UniProt Q02750)
- Sequence (Q02750 whole entry): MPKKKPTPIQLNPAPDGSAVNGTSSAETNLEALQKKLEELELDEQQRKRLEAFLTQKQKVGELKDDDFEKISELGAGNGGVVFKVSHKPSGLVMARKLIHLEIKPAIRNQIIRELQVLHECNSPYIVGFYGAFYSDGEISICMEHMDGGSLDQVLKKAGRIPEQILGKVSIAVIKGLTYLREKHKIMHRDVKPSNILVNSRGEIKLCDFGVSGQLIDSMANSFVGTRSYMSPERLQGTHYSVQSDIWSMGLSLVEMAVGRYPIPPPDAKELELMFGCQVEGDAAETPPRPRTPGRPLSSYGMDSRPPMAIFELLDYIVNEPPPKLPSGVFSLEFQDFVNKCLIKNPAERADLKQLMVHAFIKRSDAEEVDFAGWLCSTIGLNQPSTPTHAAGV
- method.description: Assay for inhibitors of the MAP kinase pathway (coupled GST-MEK/GST-MAPK/MBP 33P assay)
- assay.setup: GST-MEK activated by c-raf, 33P incorporation into myelin basic protein

{"smiles.code": "COc1cc2ncc(F)c(Nc3ccc(Oc4ccccc4)cc3)c2cc1OC", "IC50": "550 nM"}
